# assay overview: cSCC tumour pharmacokinetics after intra-tumoural injection (LC/MS/MS)
# Assay type: in vivo, mouse
# condition context: K14-HPV38-E6/E7, mouse, in vivo
recorded metric: concentration at 6 h (ng/g)
Form entry: value (ng/g) — number only.

Need concentration at 6 h, item C=CC[C@@H]1/C=C(\C)C[C@H](C)C[C@H](OC)[C@H]2O[C@@](O)(C(=O)C(=O)N3CCCC[C@H]3C(=O)O[C@H](/C(C)=C/[C@@H]3CC[C@@H](O)[C@H](OC)C3)[C@H](C)[C@@H](O)CC1=O)[C@H](C)C[C@@H]2OC [tacrolimus, reference compound]
73

---

# assay overview: cSCC tumour pharmacokinetics after intra-tumoural injection (LC/MS/MS)
# Format: in vivo, mouse
# condition context: K14-HPV38-E6/E7, mouse, in vivo
recorded metric: concentration at 18 h
Provide the measurement as a number trailed by its unit.

Need concentration at 18 h, item C=CC[C@@H]1/C=C(\C)C[C@H](C)C[C@H](OC)[C@H]2O[C@@](O)(C(=O)C(=O)N3CCCC[C@H]3C(=O)O[C@H](/C(C)=C/[C@@H]3CC[C@@H](O)[C@H](OC)C3)[C@H](C)[C@@H](O)CC1=O)[C@H](C)C[C@@H]2OC [tacrolimus, reference compound]
52 ng/g

---

# assay overview: cSCC tumour pharmacokinetics after intra-tumoural injection (LC/MS/MS)
# Format: in vivo, mouse
# condition context: K14-HPV38-E6/E7, mouse, in vivo; 1 h post final dose, SCC tumours; read-out: Average Concentration Compound 1 in tumour
recorded metric: concentration at 1 h

Need concentration at 1 h, item `CC[C@@H]1/C=C(\C)[C@@H](O)[C@H](C)C[C@H](OC)[C@H]2O[C@@](O)(C(=O)C(=O)N3CCCC[C@H]3C(=O)O[C@H](/C(C)=C/[C@@H]3CC[C@@H](O)[C@H](OC)C3)[C@H](C)[C@@H](O)CC1=O)[C@H](C)C[C@@H]2OC`
165000 ng/g

---

# assay overview: cSCC tumour pharmacokinetics after intra-tumoural injection (LC/MS/MS)
# Format: in vivo, mouse
# condition context: K14-HPV38-E6/E7, mouse, in vivo; 6 h post final dose, SCC tumours; read-out: Average Concentration Compound 1 in tumour
# Experimental: Tumour processing: The whole tumour was removed from the mouse. The weight of the tumour was recorded and tumour was placed into an appropriate cryovial on dry ice then transferred to a −80° C. freezer. 3 tumours per time point were assessed. Calibration standards and quality control samples were prepared by adding 2.5 μL of stock solutions of test compound of different concentrations into 25 μL of naive mouse blood or skin homogenates. […] 20-40 μL of the supernatant was analysed by LCMS/MS. […]
recorded metric: concentration at 6 h (ng/g)
Form entry: value (ng/g) — number only.

Need concentration at 6 h, item CC[C@@H]1/C=C(\C)[C@@H](O)[C@H](C)C[C@H](OC)[C@H]2O[C@@](O)(C(=O)C(=O)N3CCCC[C@H]3C(=O)O[C@H](/C(C)=C/[C@@H]3CC[C@@H](O)[C@H](OC)C3)[C@H](C)[C@@H](O)CC1=O)[C@H](C)C[C@@H]2OC [Compound 1]
148000
